Measured EC50 of individual entries
- Tested on: RSV A2
- assay method text: RSV RT-PCR based assay
- Assay type: cell-based
- study conditions: human respiratory syncytial virus; RT-PCR assay; HEp-2 cells; 24 hour compound pre-incubation; RSV A2 at MOI 0.1; 4 days after infection; viral load; read-out: EC50
measured endpoint: EC50

compound	tested system	measured result
[N-]=[N+]=N[C@]1(CO)O[C@@H](n2ccc(N)nc2=O)[C@H](F)[C@@H]1O [Compound 2, 4′-azido-2′-deoxy-2′-fluorocytidine]	RSV A2	< 1 µM
[N-]=[N+]=N[C@]1(CO)O[C@@H](n2ccc(=O)[nH]c2=O)[C@@H](O)[C@@H]1O [Compound 12, 4′-azidoarabinouridine]	RSV A2	> 100 µM
[N-]=[N+]=N[C@]1(CO)O[C@@H](n2cnc(C(N)=O)n2)[C@H](O)[C@@H]1O [Compound 43, 4′-azidoribavirin]	RSV A2	10 to 100 µM
CC(C)OC(=O)[C@H](C)NP(=O)(OC[C@@]1(N=[N+]=[N-])O[C@@H](n2ccc(N)nc2=O)[C@H](O)[C@@H]1O)Oc1ccccc1 (stereo partly drawn) [Compound 22]	RSV A2	< 1 µM
[N-]=[N+]=N[C@]1(CO)O[C@@H](n2ccc(=O)[nH]c2=O)[C@@H](F)[C@@H]1O [Compound 20]	RSV A2	> 100 µM
CC(C)OC(=O)[C@H](C)NP(=O)(OC[C@@]1(N=[N+]=[N-])O[C@@H](n2ccc(=O)[nH]c2=O)[C@@H](O)[C@@H]1O)Oc1ccccc1 (stereo partly drawn) [Compound 35]	RSV A2	< 1 µM

---

- Tested on: RSV Long strain
- assay method text: RSV CPE reduction assay
- Assay type: cell-based
- study conditions: human respiratory syncytial virus, HEp-2, 144 h
EC50 values, listed per item
measured endpoint: EC50

compound	measured result
CC(C)OC(=O)[C@H](C)NP(=S)(OC[C@@]1(N=[N+]=[N-])O[C@@H](n2ccc(=O)[nH]c2=O)[C@H](O)[C@@H]1O)Oc1ccccc1 (stereo partly shown)	< 1 µM
CC(C)OP1(=S)OC[C@@]2(N=[N+]=[N-])O[C@@H](n3ccc(=O)[nH]c3=O)[C@H](F)[C@@H]2O1 (stereo partly shown)	> 100 µM
COP1(=S)OC[C@@]2(N=[N+]=[N-])O[C@@H](n3ccc(=O)[nH]c3=O)[C@H](F)[C@@H]2O1 (stereo partly shown)	> 100 µM
CC(C)OP1(=S)OC[C@@]2(N=[N+]=[N-])O[C@@H](n3ccc(N)nc3=O)[C@H](F)[C@@H]2O1 (stereo partly shown)	> 100 µM
